- study.system: histamine H3 receptor (Homo sapiens, UniProt Q9Y5N1)
- Construct: expressed in transfected cells; host or cells: CHO K1 cells carrying pSwitch, transfected with pGeneH3, mifepristone-induced; clone 3H3; membranes
- Sequence (Q9Y5N1 whole entry): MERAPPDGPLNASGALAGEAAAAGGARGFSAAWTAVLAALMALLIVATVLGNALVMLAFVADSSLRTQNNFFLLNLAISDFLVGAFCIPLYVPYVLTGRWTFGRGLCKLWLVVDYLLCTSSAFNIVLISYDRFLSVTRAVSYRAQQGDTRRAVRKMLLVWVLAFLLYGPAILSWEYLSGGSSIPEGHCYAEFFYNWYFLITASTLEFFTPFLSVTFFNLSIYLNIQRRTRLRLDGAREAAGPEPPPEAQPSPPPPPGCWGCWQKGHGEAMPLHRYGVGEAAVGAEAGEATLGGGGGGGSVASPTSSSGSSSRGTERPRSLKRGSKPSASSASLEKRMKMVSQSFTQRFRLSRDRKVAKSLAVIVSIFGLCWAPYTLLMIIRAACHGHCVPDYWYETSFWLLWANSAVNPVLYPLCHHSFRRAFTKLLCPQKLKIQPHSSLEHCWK
- method.description: Histamine H3 functional antagonist assay (method B), [35S]-GTPγS SPA on membranes
- Type: biochemical
- condition.details: membrane from cultured H3 cells, histamine at EC80, averages of a number of experiments, read-out: functional pKi (fpKi), histamine H3 functional antagonist assay (method B) (converted)

{"compound": "CNC(=O)c1cnc(N2CCC(CC3CCN(C4CCC4)CC3)CC2)cn1 [Example E8]", "Ki": "≤ 1 nM"}
{"compound": "O=C(c1ccc(N2CCC(CC3CCN(C4CCC4)CC3)CC2)cc1)C(F)(F)F [Example E31]", "Ki": "≤ 1 nM"}
{"compound": "N#Cc1ccc(N2CCC(CC3CCN(C4CCC4)CC3)CC2)cn1 [Example E22]", "Ki": "≤ 0.316 nM"}
{"compound": "Cc1noc(-c2ccc(N3CCC(CC4CCN(C(C)C)CC4)CC3)cn2)n1 [Example E15]", "Ki": "≤ 1 nM"}
